- method notes: cAMP Responsive Elements (CRE) small molecule antagonists, cell-based qHTS assay: qHTS cell viability counter screen (AID 2060913); further: nearly all actives have a fitted effect of over 40% in size
- measurement context: CRE-bla HEK293T viability, CellTiter-Glo luminescence, 5 h; series mostly up to 92.4 µM
- Source text: U.S. Tox21 Program National Center for Advancing Translational Sciences [NCATS] Division of Preclinical Innovation [DPI] U.S. Environmental Protection Agency [EPA] National Institutes of Environmental Health Sciences [NIEHS] National Toxicology Program [NTP] U.S. Food and Drug Administration [FDA] […] The activation of the report gene under culture conditions can be detected by fluorescence intensity. […]
Inconclusive results are not listed. Activity calls are given as the source filed them. The call rests on the fitted dose curve; in most records, active means well fitted cell-killing curve with a large enough effect in the repeat runs; inconclusive means weak or mixed curves, or effect the other way; inactive means flat fitted curve, though single readings scatter.
outcome measure: viability change, negative = cytotoxic

O=C(O)Cc1cn(-c2ccccc2)nc1-c1ccc(Cl)cc1: inactive
NS(=O)(=O)c1ccccc1Cl: inactive
Cc1oc(=O)oc1CN1CCN(c2cc3c(cc2F)c(=O)c(C(=O)O)c2n3C(C)S2)CC1 (centres undefined): inactive
CC(CCc1ccc2c(c1)OCO2)NN (centres undefined): inactive
CN1CCOCC1: inactive

--- query ---
# viability change, negative = cytotoxic lookup, item CCC(=O)C1CC(C(C)C)CC=C1C (centres undefined)
inactive

Provenance of the data: PubChem BioAssay (Tox21)
